- System: OVCAR-8 ovarian
- Measurement Description: NCI-60 one-dose screen, 48 h (100 = growth as untreated, 0 = no growth, -100 = all killed)
- Measurement Conditions: 10 µM unless noted
The panel holds about 83,000 compounds, 20% with a hit somewhere; the sample as a whole holds those more often. Active and inactive are the calls of the source. The calls were made as follows: active = growth percent below 10; inactive = the rest.
Endpoint Label: growth

>>> df
                                    molecule  endpoint_label            result
 0  CCCCCCCCCCCCCCCCNC(=S)N/N=C/c1ccc(OC)cc1          growth  92.1% (inactive)
 1  COc1cc(/C=C/C(=O)/C=C(/C=C/c2ccc(OC(C)=O)c(OC)c2)OB(F)F)ccc1OC(C)=O          growth    20% (inactive)
 2  CCCCCCN(CCCCCC)CCC(=O)Nc1ccc(S(=O)(=O)c2ccc(NC(=O)CCN(CCCCCC)CCCCCC)cc2)cc1          growth  90.8% (inactive)
 3  O=C(Nc1ccc(-n2cc(-c3ccncc3)c(-c3ccc(Cl)c(O)c3)n2)cc1)Nc1cc(C(F)(F)F)cc(C(F)(F)F)c1          growth  18.2% (inactive)
 4  COC(=O)C(Cc1cnc[nH]1)N1CC(=O)N2[C@@H](c3ccccc3)SC[C@H]2C1=O (some centres not stated)          growth  98.4% (inactive)
 5  CC(=O)OC1CC2C3CCC4C[C@@H](NC(=O)C=C(C)C)CC[C@]4(C)C3CC[C@]2(C)[C@H]1C(C)N(C)C (some centres not stated)          growth  45.1% (inactive)
 6  Cc1ccc(C(=O)Nc2ccc(CN3CCN(C)CC3)c(C(F)(F)F)c2)cc1C#Cc1cnc(N)c2ccc(C#N)cc12          growth  27.8% (inactive)
 7  COc1ccc(/C=C2\CCCC3=C2N=C2SC=NN2C3c2ccc(OC)c(OC)c2)cc1OC (configuration not stated)          growth    9.01% (active)
 8      N#Cc1c2cccnc2c2nnc3cc(Cl)c(Cl)cc3n12          growth   -19.5% (active)
 9    CCOC(=O)c1c2c(cn1Cc1ccccc1)-c1oncc1CC2          growth  84.9% (inactive)
10  CN1C(=O)C(=Cc2coc3ccc(Br)cc3c2=O)C(=O)N(C)C1=O          growth  98.5% (inactive)
11  CCCCN(CCCC)CCCNc1c2c(nc3ccc(Cl)cc13)CCCC2          growth   102% (inactive)
